Each recorded value in this set is attributed to patent US4174391A.

Test system: Staphylococcus aureus Smith
Experiment: Mouse treated orally, Staphylococcus aureus Smith infection (Test 1)
Details: 168 h, oral, dosed 1, 4, 24, 30 and 48 hours after infection, observed seven days, test compound, read-out: In vivo CD50 (oral)
Under this convention, class 1 denotes ED50 strictly below 100 mg/kg and class 0 denotes ED50 at or above 100 mg/kg.

Reference set, count: 4
Task: Please check: ED50 for CCOC(=O)CCCC(=O)OC1C(OC2C(CC=O)CC(C)C(OC3CCC(N(C)C)C(C)O3)/C=C/C=C/CC(C)OC(=O)CC(O)C2OC)OC(C)C(OC2CC(C)(O)C(O)C(C)O2)C1N(C)C (centres unmarked) [B, 2'-ethyl glutarate of spiramycin I] , strictly under 100 mg/kg or not?
Result: class 0

Task: Please check: ED50 for COC1C(O)CC(=O)OC(C)C/C=C/C=C/C(OC2CCC(N(C)C)C(C)O2)C(C)CC(CC=O)C1OC1OC(C)C(OC2CC(C)(O)C(O)C(C)O2)C(N(C)C)C1OC(=O)CCC(=O)SC (centres unmarked) , strictly under 100 mg/kg or not?
Result: class 0

Task: Please check: ED50 for CCOC(=O)CC(=O)OC1C(OC2C(CC=O)CC(C)C(OC3CCC(N(C)C)C(C)O3)/C=C/C=C/CC(C)OC(=O)CC(O)C2OC)OC(C)C(OC2CC(C)(O)C(O)C(C)O2)C1N(C)C (centres unmarked) [J, 2'-ethyl malonate of spiramycin I] , strictly under 100 mg/kg or not?
Result: class 0

Task: Please check: ED50 for COC1C(O)CC(=O)OC(C)C/C=C/C=C/C(OC2CCC(N(C)C)C(C)O2)C(C)CC(CC=O)C1OC1OC(C)C(OC2CC(C)(O)C(O)C(C)O2)C(N(C)C)C1OC(=O)CCC(=O)Oc1ccccc1 (centres unmarked) [K, 2'-phenyl succinate of spiramycin I] , strictly under 100 mg/kg or not?
Result: class 1

Please look at the following compound next.
Task: Please check: ED50 for CCCOC(=O)CCC(=O)OC1C(OC2C(CC=O)CC(C)C(OC3CCC(N(C)C)C(C)O3)/C=C/C=C/CC(C)OC(=O)CC(O)C2OC)OC(C)C(OC2CC(C)(O)C(O)C(C)O2)C1N(C)C (centres unmarked) [D, 2'-propyl succinate of spiramycin I] , strictly under 100 mg/kg or not?
Result: class 1
